- assay_target: furin, P09958;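 also: purified furin at 1:10 enzyme:substrate in 50 mM HEPES pH 7.5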
- Sequence (P09958 whole entry): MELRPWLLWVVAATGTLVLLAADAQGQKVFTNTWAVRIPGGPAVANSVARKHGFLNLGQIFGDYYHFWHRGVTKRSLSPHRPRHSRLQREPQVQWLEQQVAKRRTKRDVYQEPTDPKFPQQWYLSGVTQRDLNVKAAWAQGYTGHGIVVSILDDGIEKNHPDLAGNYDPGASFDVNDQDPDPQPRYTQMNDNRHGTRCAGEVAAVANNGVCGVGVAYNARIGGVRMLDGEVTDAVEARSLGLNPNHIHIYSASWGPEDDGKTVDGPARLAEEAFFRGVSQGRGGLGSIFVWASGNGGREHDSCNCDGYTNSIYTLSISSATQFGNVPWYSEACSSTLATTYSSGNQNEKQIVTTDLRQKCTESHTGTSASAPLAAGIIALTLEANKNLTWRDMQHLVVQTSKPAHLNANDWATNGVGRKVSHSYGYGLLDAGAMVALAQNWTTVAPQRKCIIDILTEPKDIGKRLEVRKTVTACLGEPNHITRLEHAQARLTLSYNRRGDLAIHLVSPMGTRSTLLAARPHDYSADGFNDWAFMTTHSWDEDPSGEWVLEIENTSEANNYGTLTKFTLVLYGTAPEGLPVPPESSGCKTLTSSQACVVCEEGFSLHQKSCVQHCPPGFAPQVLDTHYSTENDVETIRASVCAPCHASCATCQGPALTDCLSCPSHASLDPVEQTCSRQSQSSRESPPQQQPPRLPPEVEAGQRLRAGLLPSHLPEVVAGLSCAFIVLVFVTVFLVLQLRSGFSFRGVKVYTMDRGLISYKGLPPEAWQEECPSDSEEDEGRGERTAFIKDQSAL
- test_name: furin cleavage Z-score vs untreated control; higher = more cleavage, active = 3.5 or more, inactive = 1 or less, 8 variable residues between constant flanks
- settings: 15 min
Some of the results follow. How many sequences the whole screen found active is unknown.
endpoint_name: furin cleavage Z-score
Response field accepts a number only; no unit should be typed.

Fill in the blank: the reported furin cleavage Z-score of CATSNSLKRDAGNASASA [FS-885] is ____. 0.0826

Try CAMEECNQHLAGNASASA [HC38] next. 2.66

Same again, this time with CALHVWIPPLAGNASASA [HC589] 1.42

Now consider CARKKRKIKEAGNASASA [FS-3191] and answer again. -0.156

Cool, now CADFERSRAFAGNASASA [FS-1845] -0.501

Also, CAAWDMMMNWAGNASASA [HC320] please. 0.73

Thanks! And CATTHCSGSWAGNASASA [HC1875] ? -0.00567

Reference source for all entries: the supplement of paper PMC3545927
